All figures here come from the supplement of paper PMC10307832.

Test system: HARA
Method summary: relative viability (nuclei count vs DMSO), 5 days (fraction); higher = more cells survive
Measurement parameters: first compound 0.08 µM

| Compound | relative viability |
| --- | --- |
| COc1nc(C)cnc1NS(=O)(=O)c1cccnc1-c1ccc(-c2nnco2)cc1 [Zibotentan] + O=C(CCCCCCC(=O)Nc1ccccc1)NO [Vorinostat] (partner 1 µM) | 0.638 |
| O=c1cc(-c2cccc3c2Sc2ccccc2S3)oc(N2CCOCC2)c1 + Nc1ncn([C@H]2C[C@H](O)[C@@H](CO)O2)c(=O)n1 [Decitabine] (partner 2 µM) | 0.634 |
| COc1nc(C)cnc1NS(=O)(=O)c1cccnc1-c1ccc(-c2nnco2)cc1 [Zibotentan] + C[C@@H](Oc1cc(-c2cnn(C3CCNCC3)c2)cnc1N)c1c(Cl)ccc(F)c1Cl [Crizotinib] (partner 1 µM) | 1.03 |
| COc1nc(C)cnc1NS(=O)(=O)c1cccnc1-c1ccc(-c2nnco2)cc1 [Zibotentan] + CC1(C)CCC(c2ccc(Cl)cc2)=C(CN2CCN(c3ccc(C(=O)NS(=O)(=O)c4ccc(N[C@H](CCN5CCOCC5)CSc5ccccc5)c(S(=O)(=O)C(F)(F)F)c4)cc3)CC2)C1 [Navitoclax] (partner 0.5 µM) | 1.2 |

---

Test system: LOU-NH91
Method summary: relative viability (nuclei count vs DMSO), 5 days (fraction); higher = more cells survive
Measurement parameters: first compound 8 µM
Assay readout: relative viability

| Molecule | Assay readout | Obs value |
| --- | --- | --- |
| O=c1cc(-c2cccc3c2Sc2ccccc2S3)oc(N2CCOCC2)c1 + Nc1nc2[nH]cc(CCc3ccc(C(=O)N[C@@H](CCC(=O)O)C(=O)O)cc3)c2c(=O)[nH]1 [Pemetrexed] (partner 0.2 µM) | relative viability | 0.31 |
| O=c1cc(-c2cccc3c2Sc2ccccc2S3)oc(N2CCOCC2)c1 + C[C@]1(O)C[C@@H](c2nc(-c3ccc4ccc(-c5ccccc5)nc4c3)c3c(N)nccn32)C1 [Linsitinib] (partner 1 µM) | relative viability | 0.893 |
| O=c1cc(-c2cccc3c2Sc2ccccc2S3)oc(N2CCOCC2)c1 + CC1(C)CCC(c2ccc(Cl)cc2)=C(CN2CCN(c3ccc(C(=O)NS(=O)(=O)c4ccc(N[C@H](CCN5CCOCC5)CSc5ccccc5)c(S(=O)(=O)C(F)(F)F)c4)cc3)CC2)C1 [Navitoclax] (partner 0.5 µM) | relative viability | 0.705 |
| O=c1cc(-c2cccc3c2Sc2ccccc2S3)oc(N2CCOCC2)c1 + N=C(N)NC(=N)NCCc1ccccc1 [Phenformin] (partner 250 µM) | relative viability | 0.741 |
| O=c1cc(-c2cccc3c2Sc2ccccc2S3)oc(N2CCOCC2)c1 + O=C(c1cc(Cc2n[nH]c(=O)c3ccccc23)ccc1F)N1CCN(C(=O)C2CC2)CC1 [Olaparib] (partner 8 µM) | relative viability | 0.917 |

---

Below, each of the molecules is paired with its reported relative viability value.
Test system: NCI-H2228
Method summary: relative viability (nuclei count vs DMSO), 5 days (fraction); higher = more cells survive
Measurement parameters: first compound 0.01 µM

| Molecule | relative viability |
| --- | --- |
| CCN(CC)CCCCNc1ncc2cc(-c3cc(OC)cc(OC)c3)c(NC(=O)NC(C)(C)C)nc2n1 + Cc1nc(NC(=O)N2CCC[C@H]2C(N)=O)sc1-c1ccnc(C(C)(C)C(F)(F)F)c1 [Alpelisib] (partner 2 µM) | 0.796 |
| CCN(CC)CCCCNc1ncc2cc(-c3cc(OC)cc(OC)c3)c(NC(=O)NC(C)(C)C)nc2n1 + Cc1cc(Nc2cc(N3CCN(C)CC3)nc(Sc3ccc(NC(=O)C4CC4)cc3)n2)n[nH]1 [Tozasertib] (partner 0.1 µM) | 0.183 |
| O=c1cc(N2CCOCC2)oc2c(-c3cccc4c3sc3ccccc34)cccc12 + Nc1nc2[nH]cc(CCc3ccc(C(=O)N[C@@H](CCC(=O)O)C(=O)O)cc3)c2c(=O)[nH]1 [Pemetrexed] (partner 0.2 µM) | 0.342 |
| O=c1cc(N2CCOCC2)oc2c(-c3cccc4c3sc3ccccc34)cccc12 + COc1cc2c(Oc3ccc(NC(=O)C4(C(=O)Nc5ccc(F)cc5)CC4)cc3F)ccnc2cc1OCCCN1CCOCC1 [Foretinib] (partner 0.25 µM) | 0.864 |

---

Below, each of the molecules is paired with its reported relative viability value.
Test system: NCI-H1666
Method summary: relative viability (nuclei count vs DMSO), 5 days (fraction); higher = more cells survive
Measurement parameters: first compound 0.253 µM

| Molecule | Assay target | relative viability |
| --- | --- | --- |
| COc1nc(C)cnc1NS(=O)(=O)c1cccnc1-c1ccc(-c2nnco2)cc1 [Zibotentan] + CC(C)C[C@H](NC(=O)[C@H](Cc1ccccc1)NC(=O)c1cnccn1)B(O)O [Bortezomib] (partner 0.002 µM) | NCI-H1666 | 0.599 |
| O=c1cc(-c2cccc3c2Sc2ccccc2S3)oc(N2CCOCC2)c1 + CS(=O)(=O)N1CCN(Cc2cc3nc(-c4cccc5[nH]ncc45)nc(N4CCOCC4)c3s2)CC1 [Pictilisib] (partner 1 µM) | NCI-H1666 | 0.416 |
| COc1nc(C)cnc1NS(=O)(=O)c1cccnc1-c1ccc(-c2nnco2)cc1 [Zibotentan] + CS(=O)(=O)N1CCN(Cc2cc3nc(-c4cccc5[nH]ncc45)nc(N4CCOCC4)c3s2)CC1 [Pictilisib] (partner 1 µM) | NCI-H1666 | 0.361 |

---

Tested on: PC-14
Method summary: relative viability (nuclei count vs DMSO), 5 days (fraction); higher = more cells survive
Measurement parameters: first compound 0.8 µM
Assay readout: relative viability

| Molecule | Assay target | Obs value |
| --- | --- | --- |
| O=c1cc(-c2cccc3c2Sc2ccccc2S3)oc(N2CCOCC2)c1 + CC(=O)c1c(C)c2cnc(Nc3ccc(N4CCNCC4)cn3)nc2n(C2CCCC2)c1=O [Palbociclib] (partner 0.5 µM) | PC-14 | 0.578 |
| COc1nc(C)cnc1NS(=O)(=O)c1cccnc1-c1ccc(-c2nnco2)cc1 [Zibotentan] + Nc1ncn([C@H]2C[C@H](O)[C@@H](CO)O2)c(=O)n1 [Decitabine] (partner 2 µM) | PC-14 | 0.287 |
| O=c1cc(-c2cccc3c2Sc2ccccc2S3)oc(N2CCOCC2)c1 + Nc1ncn([C@H]2C[C@H](O)[C@@H](CO)O2)c(=O)n1 [Decitabine] (partner 2 µM) | PC-14 | 0.185 |

---

This section presents compounds with their documented relative viability values.
Tested on: HCC-44
Method summary: relative viability (nuclei count vs DMSO), 5 days (fraction); higher = more cells survive
Measurement parameters: first compound 0.08 µM

| Compound | relative viability |
| --- | --- |
| O=c1cc(-c2cccc3c2Sc2ccccc2S3)oc(N2CCOCC2)c1 + COc1cccc2cc(-c3nc([C@H]4CC[C@H](C(=O)O)CC4)n4ncnc(N)c34)[nH]c12 [OSI-027] (partner 0.5 µM) | 0.419 |
| COc1nc(C)cnc1NS(=O)(=O)c1cccnc1-c1ccc(-c2nnco2)cc1 [Zibotentan] + C[C@@H](Oc1cc(-c2cnn(C3CCNCC3)c2)cnc1N)c1c(Cl)ccc(F)c1Cl [Crizotinib] (partner 1 µM) | 0.777 |
| COc1nc(C)cnc1NS(=O)(=O)c1cccnc1-c1ccc(-c2nnco2)cc1 [Zibotentan] + CC(C)C[C@H](NC(=O)[C@H](Cc1ccccc1)NC(=O)c1cnccn1)B(O)O [Bortezomib] (partner 0.002 µM) | 0.909 |
| COc1nc(C)cnc1NS(=O)(=O)c1cccnc1-c1ccc(-c2nnco2)cc1 [Zibotentan] + Nc1ncn([C@H]2C[C@H](O)[C@@H](CO)O2)c(=O)n1 [Decitabine] (partner 2 µM) | 1.01 |
| COc1nc(C)cnc1NS(=O)(=O)c1cccnc1-c1ccc(-c2nnco2)cc1 [Zibotentan] + Nc1nc2[nH]cc(CCc3ccc(C(=O)N[C@@H](CCC(=O)O)C(=O)O)cc3)c2c(=O)[nH]1 [Pemetrexed] (partner 0.2 µM) | 0.629 |
| COc1nc(C)cnc1NS(=O)(=O)c1cccnc1-c1ccc(-c2nnco2)cc1 [Zibotentan] + O=C(CCCCCCC(=O)Nc1ccccc1)NO [Vorinostat] (partner 1 µM) | 1.12 |
| COc1nc(C)cnc1NS(=O)(=O)c1cccnc1-c1ccc(-c2nnco2)cc1 [Zibotentan] + CC(=O)c1c(C)c2cnc(Nc3ccc(N4CCNCC4)cn3)nc2n(C2CCCC2)c1=O [Palbociclib] (partner 0.5 µM) | 0.98 |
| COc1nc(C)cnc1NS(=O)(=O)c1cccnc1-c1ccc(-c2nnco2)cc1 [Zibotentan] + COc1cccc2cc(-c3nc([C@H]4CC[C@H](C(=O)O)CC4)n4ncnc(N)c34)[nH]c12 [OSI-027] (partner 0.5 µM) | 0.585 |
| O=c1cc(-c2cccc3c2Sc2ccccc2S3)oc(N2CCOCC2)c1 + CC(=O)c1c(C)c2cnc(Nc3ccc(N4CCNCC4)cn3)nc2n(C2CCCC2)c1=O [Palbociclib] (partner 0.5 µM) | 0.965 |
